Property: OD 490 nm at 0.19531 nM antibody; scope: individual binders
Assay target: T1, IL-6R-Fc 항원 (IL-6R full domain 단백질) (human, UniProt P08887 20-365)
T1 construct: domain: IL-6R full domain; Expressed transiently in HEK293E and purified from the supernatant; also called IL-6R 항원; not shown: Fc part from expression vector pYK 604
T1 sequence (looked up): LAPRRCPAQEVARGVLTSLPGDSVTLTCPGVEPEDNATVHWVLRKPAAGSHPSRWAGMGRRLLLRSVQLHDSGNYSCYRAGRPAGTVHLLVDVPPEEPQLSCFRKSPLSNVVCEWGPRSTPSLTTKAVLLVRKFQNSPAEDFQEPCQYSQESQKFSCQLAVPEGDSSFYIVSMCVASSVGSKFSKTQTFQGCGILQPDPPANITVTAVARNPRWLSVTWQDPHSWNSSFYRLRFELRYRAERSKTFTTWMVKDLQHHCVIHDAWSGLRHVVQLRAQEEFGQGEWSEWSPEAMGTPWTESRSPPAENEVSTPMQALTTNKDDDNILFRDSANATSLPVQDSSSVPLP
Assay text: ELISA, coated IL-6R 100 ng/well, anti-Fab-HRP
Property name: OD 490 nm at 0.19531 nM antibody

>>> val("항 IL-6R 단클론 항체 A7 (IgG) (antibody, V domains shown, Phage clone converted to whole IgG) VH: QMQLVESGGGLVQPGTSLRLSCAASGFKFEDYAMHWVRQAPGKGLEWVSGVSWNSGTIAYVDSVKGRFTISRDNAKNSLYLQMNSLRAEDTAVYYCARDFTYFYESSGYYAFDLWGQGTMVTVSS VL: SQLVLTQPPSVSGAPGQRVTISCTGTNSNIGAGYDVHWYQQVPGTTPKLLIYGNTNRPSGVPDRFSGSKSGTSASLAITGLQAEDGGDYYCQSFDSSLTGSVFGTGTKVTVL")
"0.546 OD490"
>>> val("항 IL-6R 단클론 항체 F2 (IgG) (antibody, V domains shown, Phage clone converted to whole IgG) VH: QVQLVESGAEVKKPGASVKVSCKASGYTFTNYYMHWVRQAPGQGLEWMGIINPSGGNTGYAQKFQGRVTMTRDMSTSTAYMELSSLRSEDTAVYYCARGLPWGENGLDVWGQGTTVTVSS VL: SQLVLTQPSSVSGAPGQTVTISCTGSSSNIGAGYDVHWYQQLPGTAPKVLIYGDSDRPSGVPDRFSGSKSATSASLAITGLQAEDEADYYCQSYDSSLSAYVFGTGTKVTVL")
"1.01 OD490"
>>> val("항 IL-6R 단클론 항체 B10 (IgG) (antibody, V domains shown, Phage clone converted to whole IgG) VH: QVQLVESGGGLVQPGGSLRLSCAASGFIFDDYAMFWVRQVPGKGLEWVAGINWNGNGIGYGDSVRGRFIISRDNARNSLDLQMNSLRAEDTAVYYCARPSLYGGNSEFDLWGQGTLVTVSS VL: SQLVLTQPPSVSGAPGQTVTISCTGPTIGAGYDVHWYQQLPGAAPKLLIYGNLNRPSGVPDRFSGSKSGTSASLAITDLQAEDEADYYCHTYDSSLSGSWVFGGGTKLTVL")
"0.429 OD490"
>>> val("항 IL-6R 단클론 항체 D2 (IgG) (antibody, V domains shown, Phage clone converted to whole IgG) VH: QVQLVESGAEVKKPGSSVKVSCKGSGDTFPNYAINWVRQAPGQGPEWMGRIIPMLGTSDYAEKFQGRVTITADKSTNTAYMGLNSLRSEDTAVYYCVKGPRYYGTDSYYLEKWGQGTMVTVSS VL: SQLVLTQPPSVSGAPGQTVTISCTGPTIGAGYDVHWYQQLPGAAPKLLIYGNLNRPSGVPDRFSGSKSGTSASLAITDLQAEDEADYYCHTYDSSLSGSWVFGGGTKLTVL")
"0.469 OD490"

Origin of measurements: patent KR20130140557A
